procedure_details: stimulators of nuclear beta-catenin in C2C12, primary screen, imaging, WNT3A-conditioned medium, mouse C2C12, NPC library (AID 1117326); further: reference of the scale not given here
protocol_conditions: at 10 µM
Calls of active or inactive are those of the source. No stated cut-off is given here; in the data, active means nuclear beta-catenin stimulation mostly above about 4.2% (no sharp cut-off); inactive means mostly below about 10%.
Write down one outcome, taken from active, inactive

Query: Tell me the recorded outcome of this test for CN1C[C@H](CNC(=O)OCc2ccccc2)C[C@@H]2c3cccc4c3c(cn4C)C[C@H]21 .
Result: active

Query: Tell me the recorded outcome of this test for COP(=O)(OC)OC=C(Cl)Cl .
Result: inactive

Query: Tell me the recorded outcome of this test for CCC(=O)O[C@@H]1C=C2CCC3C(CCC4(C)C3CC[C@@H]4OC(=O)CC)C2CC1 (stereo partly specified) .
Result: inactive

Query: Tell me the recorded outcome of this test for COc1ccc2c(c1OC)CN1CCc3cc4c(cc3C1C2)OCO4 (stereo unspecified) .
Result: inactive

Query: Tell me the recorded outcome of this test for NCC1(CC(=O)O)CCCCC1 .
Result: inactive

Query: Tell me the recorded outcome of this test for N#CC(C#N)=Cc1ccc(O)c(O)c1 .
Result: inactive

###

procedure_details: growth inhibition of DIPG glioma cells, dose response, cell-based, SU-DIPG-XIII, MIPE5.0, CellTiter-Glo, qHTS (AID 1347064);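 on AC50: cells exposed to compound for 48 hours before the viability read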
protocol_conditions: SU-DIPG-XIII viability, CellTiter-Glo ATP luminescence
Records with an inconclusive call do not appear. Active and inactive are the calls of the source. Cut-off not given; nearly all actives show AC50 up to about 23 µM.
Write down one outcome, taken from TRUE (active), FALSE (inactive)

Query: Tell me the recorded outcome of this test for CC1=C(O)C(=O)C=C2C1=CC=C1[C@@]2(C)CC[C@@]2(C)[C@@H]3C[C@](C)(C(=O)O)CC[C@]3(C)CC[C@]12C .
Result: TRUE

Query: Tell me the recorded outcome of this test for CCNC(=O)CC1N=C(c2ccc(Cl)cc2)c2cc(OC)ccc2-n2c(C)nnc21 (stereo not given) .
Result: FALSE

Query: Tell me the recorded outcome of this test for CC[C@@H](C(N)=O)N1CCCC1=O .
Result: FALSE

Query: Tell me the recorded outcome of this test for N[C@@H]1C[C@H]1c1ccccc1 .
Result: FALSE

Query: Tell me the recorded outcome of this test for CCN(CC)C(=O)c1ccc(C2=CC3(CCNCC3)Oc3cccc(O)c32)cc1 .
Result: FALSE

Query: Tell me the recorded outcome of this test for CC(C)(NC(=O)O[C@@H]1CN2CCC1CC2)c1csc(-c2ccc(F)cc2)n1 .
Result: FALSE

Query: Tell me the recorded outcome of this test for N=c1c2c(-c3ccccc3)c(-c3ccccc3)n(Cc3ccccc3)c2ncn1C1CCC(O)CC1 (stereo not given) .
Result: TRUE

Query: Tell me the recorded outcome of this test for CN[C@@H]1Cc2cccc3[nH]c(=O)n(c23)C1 .
Result: FALSE

Query: Tell me the recorded outcome of this test for Cn1c(COP(=O)(NCCBr)NCCBr)cnc1[N+](=O)[O-] .
Result: FALSE

Query: Tell me the recorded outcome of this test for C/C(O)=C(\C#N)C(=O)Nc1cc(Br)ccc1Br .
Result: FALSE

Query: Tell me the recorded outcome of this test for CCc1c(C(=O)C(N)=O)c2c(OCC(=O)O)cccc2n1Cc1ccccc1 .
Result: FALSE

Query: Tell me the recorded outcome of this test for C[C@@H](C1CC[C@@]2(O)C3=CC(=O)[C@@H]4C[C@@H](O)[C@@H](O)C[C@]4(C)[C@H]3CC[C@]12C)[C@H](O)CCC(C)(C)O (stereo not given in full) .
Result: FALSE

Query: Tell me the recorded outcome of this test for C[C@]12CCC(=O)C(O)=C1CC[C@@H]1[C@@H]2CC[C@]2(C)C(=O)CC[C@@H]12 .
Result: FALSE

Query: Tell me the recorded outcome of this test for COc1cc(C(=O)N2CC[C@@H](O)[C@@H](N)C2)cc2nc(-c3cc4ccccc4n3CC3CC3)n(C)c12 .
Result: TRUE

Query: Tell me the recorded outcome of this test for COc1cccc2c1C(=O)c1c(O)c3c(c(O)c1C2=O)C[C@@](O)(C(=O)CO)CC3OC1CC(N2CCOC(OC)C2)C(O)C(C)O1 (stereo not given in full) .
Result: TRUE

###

procedure_details: HTB85 osteosarcoma cell growth inhibition, synergistic combos for chromothripsis tumors, BGB or cisplatin IC20 combos (AID 1671453);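 further: cells exposed for 96 hours before readout; 0% = vehicle DMSO and 100% = high DMSO killing control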
protocol_conditions: HTB85 osteosarcoma cells, drug combinations, measured here: with BGB IC20, at 5 µM, stronger effect = higher value
Would you mind telling me the reported inhibition of each entry?
Numbers only here, please. The scale is %.

Query: So what does the record say about inhibition for O=C1CCC[C@@H]2[C@H]3CCCN4CCC[C@@H](CN12)[C@@H]34 ?
Result: 39.5

Query: So what does the record say about inhibition for O=C(O)CCCc1ccc(N(CCCl)CCCl)cc1 ?
Result: -21.9

Query: So what does the record say about inhibition for COc1cc(C2c3cc4c(cc3C(O)C3COC(=O)C23)OCO4)cc(OC)c1OC (stereo not drawn) ?
Result: 54

Query: So what does the record say about inhibition for Cn1c(COP(=O)(NCCBr)NCCBr)cnc1[N+](=O)[O-] ?
Result: 10.3

Query: So what does the record say about inhibition for CC1(C)C(C(=O)Nc2ccc(S(=O)(=O)c3ccc(NC(=O)C4C(C)(C)C4(C)C)cc3)cc2)C1(C)C ?
Result: -16.1

Query: So what does the record say about inhibition for O=P(O)(NCCCl)NCCCl ?
Result: 0.766

Query: So what does the record say about inhibition for CN(C)NC(=O)CCC(=O)O ?
Result: -18.2

Query: So what does the record say about inhibition for Cc1c2ccncc2c(C)c2c1[nH]c1ccccc12 ?
Result: 36.4

###

procedure_details: decreased DLD-1 cellular survival, CellTiter-Glo luminescent readout, NPC compound collection, primary HTS (AID 1117346)
protocol_conditions: DLD-1 viability, CellTiter-Glo luminescence; at 20 µM (top of the series)
attribute_measured: viability decrease (inhibition) (%)
Numbers only here, please. The scale is %.

Query: So what does the record say about viability decrease (inhibition) for O=C(O)c1ccc(=O)[nH]c1 ?
Result: -3.9

Query: So what does the record say about viability decrease (inhibition) for CC(O)CN1CCN(CC(=O)[O-])CCN(CC(=O)[O-])CCN(CC(=O)[O-])CC1.[Gd+3] (stereo unspecified) ?
Result: -6.4

Query: So what does the record say about viability decrease (inhibition) for O=C(O)Cc1ccccc1 ?
Result: 0.45

Query: So what does the record say about viability decrease (inhibition) for CN1C(=O)NC(=O)C(C)(C2=CCCCC2)C1=O (stereo unspecified) ?
Result: -1.75

Query: So what does the record say about viability decrease (inhibition) for CC(NC(C)(C)C)C(=O)c1cccc(Cl)c1 (stereo unspecified) ?
Result: -10.5

Query: So what does the record say about viability decrease (inhibition) for CCCCCCC(=O)CCCCCC/C=C/C[C@@H](O)[C@H](O)[C@@](N)(CO)C(=O)O ?
Result: 9.9

Query: So what does the record say about viability decrease (inhibition) for COP(=O)(OC)OC=C(Cl)Cl ?
Result: -3.8

Query: So what does the record say about viability decrease (inhibition) for O=C1OC(CCN2CCCCC2)OC1(c1ccccc1)c1ccccc1 (stereo unspecified) ?
Result: 92.8

Query: So what does the record say about viability decrease (inhibition) for Oc1ccccc1-c1ccccc1 ?
Result: 8.7

Query: So what does the record say about viability decrease (inhibition) for Cc1ncc(CNC(=O)N(CCCl)N=O)c(N)n1 ?
Result: 1.8

Query: So what does the record say about viability decrease (inhibition) for CCCC(C)(COC(N)=O)COC(=O)NC(C)C (stereo unspecified) ?
Result: -12.4

###

Tested on: Aerobactin synthetase IucA (Klebsiella pneumoniae hvKP1)
procedure_details: Biochemical IucA enzyme inhibition primary screen of the Spectrum library (AID 1346200);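 further: 100% = wells without compound and 0% = wells lacking enzyme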
protocol_conditions: malachite green pyrophosphate, A620, at 8 µM
Calls of active or inactive are those of the source. No rule for the calls is given here.
Write down one outcome, taken from label 1 (active), label 0 (inactive)

Query: Tell me the recorded outcome of this test for Clc1ccc(C(Cn2ccnc2)OCc2ccsc2Cl)c(Cl)c1 (stereo unspecified) .
Result: label 0

Query: Tell me the recorded outcome of this test for CC1(C)C2C[C@@H](O)[C@]3(C)C(CC[C@@]4(C)[C@H](c5ccoc5)OC(=O)[C@H]5O[C@]543)[C@@]2(C)[C@@H](O)C[C@H]1O (stereo partly specified) .
Result: label 0

Query: Tell me the recorded outcome of this test for Clc1ccc(C(OCCN2CCCCC2)c2ccccc2)cc1 (stereo unspecified) .
Result: label 0

Query: Tell me the recorded outcome of this test for COc1ccc(-c2cc(=O)c3c(O)c(OC)c(OC)c(OC)c3o2)cc1 .
Result: label 0

Query: Tell me the recorded outcome of this test for COC(=O)C1=CCCN(C)C1 .
Result: label 0

Query: Tell me the recorded outcome of this test for C=C(C)C1Cc2c(ccc3c(=O)c4c(oc23)COc2cc(OC)c(OC)cc2-4)O1 (stereo unspecified) .
Result: label 0

Query: Tell me the recorded outcome of this test for O=C1CC2OCC=C3CN4CC[C@]56c7ccccc7N1C5[C@H]2[C@H]3CC46 (stereo partly specified) .
Result: label 0

Query: Tell me the recorded outcome of this test for O=C(Nc1ccccc1)Nc1ccccc1 .
Result: label 0

Query: Tell me the recorded outcome of this test for COC(=O)c1c(OC)cc2c(c1C)Oc1c(Cl)c(O)c(Cl)c(C)c1C(=O)O2 .
Result: label 0

Query: Tell me the recorded outcome of this test for Cc1cc(-n2c(=O)[nH]c(=O)n(C)c2=O)ccc1Oc1ccc(SC(F)(F)F)cc1 .
Result: label 0

Query: Tell me the recorded outcome of this test for NCCCNCCSP(=O)(O)O .
Result: label 0

Query: Tell me the recorded outcome of this test for CCc1ccc(CCOc2ccc(CC3SC(=O)NC3=O)cc2)nc1 (stereo unspecified) .
Result: label 0

Query: Tell me the recorded outcome of this test for CSc1ccc2c(c1)N(CCC1CCCCN1C)c1ccccc1S2 (stereo unspecified) .
Result: label 0

Query: Tell me the recorded outcome of this test for Oc1ccc2c(c1)OCC1c3cc4c(cc3OC21)OCO4 (stereo unspecified) .
Result: label 0

Query: Tell me the recorded outcome of this test for N[C@@H]1[C@@H](O)[C@H](O)[C@@H](CO)O[C@H]1O .
Result: label 0

Query: Tell me the recorded outcome of this test for O=C(O)[C@@H](S)[C@@H](S)C(=O)O .
Result: label 1

Query: Tell me the recorded outcome of this test for C[N+]12CCC(CC1)C(OC(=O)C(O)(c1ccccc1)c1ccccc1)C2 (stereo unspecified) .
Result: label 0

Query: Tell me the recorded outcome of this test for COC(=O)CCC(C)C1CCC2C3CC[C@@H]4C[C@H](O)CC[C@]4(C)C3C[C@H](O)[C@]12C (stereo partly specified) .
Result: label 0

Query: Tell me the recorded outcome of this test for CC(C)=CCCC1(C)C=Cc2c(O)c3c(c(CC=C(C)C)c2O1)OC12C(CC4CC1C(C)(C)OC2(C/C=C(/C)C(=O)O)C4O)C3=O (stereo unspecified) .
Result: label 0

Query: Tell me the recorded outcome of this test for O=C1c2ccccc2C(=O)C1c1ccccc1 .
Result: label 0

Query: Tell me the recorded outcome of this test for CCC(C)C(=O)OC1[C@@H]2CC3=C4CC(=O)O[C@@H](c5ccoc5)[C@]4(C)CCC3C(C)(C2=O)[C@@H](CC(=O)OC)C1(C)C (stereo partly specified) .
Result: label 0
